system: human red blood cells; experiment: Haemolytic assay; type: cell-based; settings: peptide 25 μM, human red blood cells, one hour at 37° C.
Where no end group is shown, it is not given here.
readout-kind: Haemolysis (%) 25 μM
Write the value in % as a bare number.

Sample answers from the record:
* GWWRRTVAKVAK-NH2 [Peptide R11A, GWWRRTVAKVAK-NH2] | 0.0
* GWWRRTVAKVRNAGRK-NH2 [HC(1-16)A8, GWWRRTVAKVRNAGRK] | 0.0

human red blood cells assay, substance GWWRRAVAKVRK-NH2 [Peptide T6A, GWWRRAVAKVRK-NH2] , recorded Haemolysis (%) 25 μM = 0.9

human red blood cells assay, substance GWWRATVAKVRK-NH2 [Peptide R5A, GWWRATVAKVRK-NH2] , recorded Haemolysis (%) 25 μM = 0.0

human red blood cells assay, substance GAWRRTVAKVRK-NH2 [Peptide W2A, GAWRRTVAKVRK-NH2] , recorded Haemolysis (%) 25 μM = 0.0

human red blood cells assay, substance GWWRRTVDKVRNAGRK [HC(1-16), GWWRRTVDKVRNAGRK] , recorded Haemolysis (%) 25 μM = 0.0

human red blood cells assay, substance GWARRTVAKVRK-NH2 [Peptide W3A, GWARRTVAKVRK-NH2] , recorded Haemolysis (%) 25 μM = 0.0

human red blood cells assay, substance GWWRRTVAKARK-NH2 [Peptide V10A, GWWRRTVAKARK-NH2] , recorded Haemolysis (%) 25 μM = 0.0

human red blood cells assay, substance GWWRRTVAKVRA-NH2 [Peptide K12A, GWWRRTVAKVRA-NH2] , recorded Haemolysis (%) 25 μM = 0.0

human red blood cells assay, substance AWWRRTVAKVRK-NH2 [Peptide G1A, AWWRRTVAKVRK-NH2] , recorded Haemolysis (%) 25 μM = 0.0

human red blood cells assay, substance GWWRRTVAKVRK-NH2 [HC(1-12)A8K12, GWWRRTVAKVRK-NH2] , recorded Haemolysis (%) 25 μM = 2.4

human red blood cells assay, substance GWWARTVAKVRK-NH2 [Peptide R4A, GWWARTVAKVRK-NH2] , recorded Haemolysis (%) 25 μM = 0.0

----------
tested on: human red blood cells; test: Haemolytic assay; assay type: cell-based; settings: peptide 200 μM, human red blood cells, one hour at 37° C.
Where no end group is shown, it is not given here.
readout-kind: Haemolysis (%) 200 μM
Write the value in % as a bare number.

Sample answers from the record:
• GWWARTVAKVRK-NH2 [Peptide R4A, GWWARTVAKVRK-NH2] = 3.6
• GWWRRTVAKVRA-NH2 [Peptide K12A, GWWRRTVAKVRA-NH2] = 0.0
• GWWRRTVDKVRNAGRKVAGFASKACGALGH [HC, reference compound] = 74.6
• AWWRRTVAKVRK-NH2 [Peptide G1A, AWWRRTVAKVRK-NH2] = 1.6

Next substance, please.
human red blood cells assay, substance GAWRRTVAKVRK-NH2 [Peptide W2A, GAWRRTVAKVRK-NH2] , recorded Haemolysis (%) 200 μM = 0.0

----------
system: human red blood cells; assay: Haemolytic assay; type: cell-based; settings: peptide 200 μM, human red blood cells, one hour at 37° C.
Where no end group is shown, it is not given here.
readout-kind: Haemolysis (%) 200 μM
Write the value in % as a bare number.

Sample answers from the record:
- GWWRRTVDKVRNAGRK [HC(1-16), GWWRRTVDKVRNAGRK]: 0.0
- GWWRRTVAKVRK-NH2 [HC(1-12)A8K12, GWWRRTVAKVRK-NH2]: 25.1
- GWARRTVAKVRK-NH2 [Peptide W3A, GWARRTVAKVRK-NH2]: 0.0

Consider GWWRRTVAKARK-NH2 [Peptide V10A, GWWRRTVAKARK-NH2] . Its measured Haemolysis (%) 200 μM is 1.0

Consider GWWRRAVAKVRK-NH2 [Peptide T6A, GWWRRAVAKVRK-NH2] . Its measured Haemolysis (%) 200 μM is 4.1

Consider GWWRRTVAAVRK-NH2 [Peptide K9A, GWWRRTVAAVRK-NH2] . Its measured Haemolysis (%) 200 μM is 5.1

Consider GWWRRTAAKVRK-NH2 [Peptide V7A, GWWRRTAAKVRK-NH2] . Its measured Haemolysis (%) 200 μM is 0.0

Consider GWWRRTVAKVRNAGRK-NH2 [HC(1-16)A8, GWWRRTVAKVRNAGRK] . Its measured Haemolysis (%) 200 μM is 5.0

Consider GWWRATVAKVRK-NH2 [Peptide R5A, GWWRATVAKVRK-NH2] . Its measured Haemolysis (%) 200 μM is 0.0

Consider GWWRRTVAKVAK-NH2 [Peptide R11A, GWWRRTVAKVAK-NH2] . Its measured Haemolysis (%) 200 μM is 0.0

----------
test system: human red blood cells; test: Haemolytic assay; type: cell-based; settings: peptide 25 μM, human red blood cells, one hour at 37° C.
Where no end group is shown, it is not given here.
readout-kind: Haemolysis (%) 25 μM
Write the value in % as a bare number.

Sample answers from the record:
* GWWRRTVDKVRNAGRKVAGFASKACGALGH [HC, reference compound] | 13.5
* GWWRRTVAAVRK-NH2 [Peptide K9A, GWWRRTVAAVRK-NH2] | 0.0

Next substance, please.
Consider GWWRRTAAKVRK-NH2 [Peptide V7A, GWWRRTAAKVRK-NH2] . Its measured Haemolysis (%) 25 μM is 0.0
